This listing pairs compounds with measured IC50.
- TEST_SYSTEM: Recombinant human DDR1 (Homo sapiens, UniProt Q08345)
- Construct: Recombinant human DDR1 (2.5 nM; aa440-876 containing a GST tag)
- Sequence (Q08345 440-876 isoform Q08345-2): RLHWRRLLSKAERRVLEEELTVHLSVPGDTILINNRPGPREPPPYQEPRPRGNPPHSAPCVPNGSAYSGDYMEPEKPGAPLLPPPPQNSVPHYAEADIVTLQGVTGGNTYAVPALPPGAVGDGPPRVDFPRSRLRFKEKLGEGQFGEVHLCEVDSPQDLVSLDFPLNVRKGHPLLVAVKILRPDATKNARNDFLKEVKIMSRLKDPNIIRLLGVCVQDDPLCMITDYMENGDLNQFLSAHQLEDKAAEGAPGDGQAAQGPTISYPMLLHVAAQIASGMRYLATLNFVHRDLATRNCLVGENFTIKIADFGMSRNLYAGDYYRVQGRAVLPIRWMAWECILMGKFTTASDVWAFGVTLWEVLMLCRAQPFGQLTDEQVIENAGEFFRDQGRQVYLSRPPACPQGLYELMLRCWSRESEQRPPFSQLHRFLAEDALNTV
- PROTOCOL_TEXT: LanthaScreen Eu Kinase Binding Assay, DDR1
- STATED_CONDITIONS: recombinant human DDR1 (2.5 nM; aa440-876, GST tag), Kinase Tracer 178 5 nM, time-resolved fluorescence, at least two independent replicates; read-out: DDR1 pIC50 (converted)

// query Which IC50 value is on record for CC(=O)C1CCN(C(=O)Cn2ccc3cccc(Nc4ccc5c(cnn5C)c4)c3c2=O)CC1 ?
// result 0.1 to 1 µM

----------
This listing pairs compounds with measured IC50.
- TEST_SYSTEM: Recombinant human DDR1 (Homo sapiens, UniProt Q08345)
- Construct: Recombinant human DDR1 (2.5 nM; aa440-876 containing a GST tag)
- PROTOCOL_TEXT: LanthaScreen Eu Kinase Binding Assay, DDR1
- STATED_CONDITIONS: recombinant human DDR1 (2.5 nM; aa440-876, GST tag), Kinase Tracer 178 5 nM, time-resolved fluorescence, at least two independent replicates; read-out: DDR1 pIC50 (converted)
- Method: DDR1 and DDR2 Biochemical Assay Method The capacity of compounds to bind to DDR1 and DDR2 was quantified using a LanthaScreen Eu Kinase Binding Assay. […] Following 60-minute incubation at room temperature, time-resolved fluorescence was measured on a BMG Labtech PHERAstar plate reader. […] Data was analysed using a four-parameter logistic model to calculate IC50 values, with at least two independent replicates were performed for each compound.

Worked set:
COMPOUND: Cn1ncc2cc(Nc3cccc4ccn(CC(=O)Nc5cccnc5)c(=O)c34)ccc21
IC50: 100 to 1000 nM
//
COMPOUND: O=C(Cn1ccc2cccc(Nc3ccc4[nH]ncc4c3)c2c1=O)NCC(F)(F)F
IC50: 10 to 100 nM
//
COMPOUND: Cn1cnc(NC(=O)Cn2ccc3cccc(Nc4ccc5c(cnn5C)c4)c3c2=O)c1
IC50: 10 to 100 nM
//
COMPOUND: Cn1ncc2cc(Nc3cccc4ccn(CC(=O)N5CCCC(C(F)(F)F)C5)c(=O)c34)ccc21 (stereo not shown)
IC50: 10 to 100 nM
//
COMPOUND: Cn1ncc2cc(Nc3cccc4ccn(CC(=O)NCC(F)(F)F)c(=O)c34)cc(C(N)=O)c21
IC50: 100 to 1000 nM
//
COMPOUND: Cn1ncc2cc(Nc3cccc4ccn(CC(=O)Nc5cncc(C(F)(F)F)c5)c(=O)c34)ccc21
IC50: < 10 nM
//
COMPOUND: CN(c1ccc2c(cnn2C)c1)c1cccc2ccn(CC(=O)Nc3cnoc3)c(=O)c12
IC50: 10 to 100 nM
//
COMPOUND: CN(C)Cc1cccc(NC(=O)Cn2ccc3cccc(Nc4ccc5c(cnn5C)c4)c3c2=O)c1
IC50: 10 to 100 nM

// query Which IC50 value is on record for Cc1cn(-c2cc(NC(=O)Cn3ccc4cccc(Nc5ccc6c(cnn6C)c5)c4c3=O)cc(C(F)(F)F)c2)cn1 ?
// result 10 to 100 nM

// query Which IC50 value is on record for Cn1ncc2cc(Nc3cccc4ccn(CC(=O)N5CCC[C@H]5C(F)F)c(=O)c34)ccc21 ?
// result < 10 nM

// query Which IC50 value is on record for CCNC(=O)Cn1ccc2cccc(Nc3ccc4c(cnn4C)c3)c2c1=O ?
// result 100 to 1000 nM

// query Which IC50 value is on record for Cn1ncc2cc(Nc3cccc4ccn(CC(=O)NC5CCOCC5)c(=O)c34)ccc21 ?
// result 100 to 1000 nM

// query Which IC50 value is on record for Cc1n[nH]c2cc(Nc3cccc4ccn(CC(=O)Nc5cccc(C(F)(F)F)c5)c(=O)c34)ccc12 ?
// result 10 to 100 nM

// query Which IC50 value is on record for Cn1ncc2cc(Nc3cccc4ccn(CC(=O)Nc5cncnc5)c(=O)c34)ccc21 ?
// result 100 to 1000 nM

// query Which IC50 value is on record for CN(CC(F)(F)F)C(=O)Cn1ccc2cccc(Nc3ccc4c(cnn4C)c3)c2c1=O ?
// result 10 to 100 nM

// query Which IC50 value is on record for Cn1ncc2cc(Nc3cccc4ccn(CC(=O)N5CCCC[C@H]5C(F)(F)F)c(=O)c34)ccc21 ?
// result < 10 nM
